As shown below, each of these molecules has a reported MIC value.
tested on: K. pneumoniae DT; assay: Antibacterial spectra, agar dilution method; assay type: cell-based; settings: Klebsiella pneumoniae, tables in the Examples

Look over these answered cases.
O=C(Cc1cccs1)N[C@@H]1C(=O)N2C(C(=O)[O-])=C(C[n+]3ccccc3)CS[C@H]12 [Cephaloridine, reference compound] | 3.12 µg/mL
O=C(Cc1csc(=O)[nH]1)NC1C(=O)N2C(C(=O)O)=C(CSc3nncs3)CS[C@H]12 (stereo partly drawn) [Example 4] | 1.56 µg/mL

Qu. Quickly give me recorded MIC for Cc1nnc(SCC2=C(C(=O)O)N3C(=O)[C@@H](NC(=O)Cn4cnnn4)[C@H]3SC2)s1 [Cephazolin, reference compound]
Ans. 1.56 µg/mL
